Reported pIC50 values are given for each entry in this list.
Assay: Inhibition of recombinant mouse GALK1 using ATP as substrate incubated for 1 hr and measured by Kinase-Glo assay
Conditions: read-out: IC50
Conceptually, pIC50 converts a concentration in mol/L into minus its log10.

Ask | Any idea what its pIC50 is? The compound is CC1=C(C(=O)NCc2cnn(C)c2)[C@H](c2ccc(C)cc2Cl)N=C(Nc2nc3cccc(N)c3o2)N1
Reply | 5.80

Ask | Which measured pIC50 value corresponds to CC1=C(C(=O)NCc2cnn(C)c2)C(c2ccc(Cl)cc2Cl)N=C(Nc2nc3ccc(F)c(N)c3o2)N1 (stereo not drawn) ?
Reply | 5.71

Ask | Looking for the measured pIC50 of CC1=C(C(=O)NCc2ccccc2O)C(c2ccccc2Cl)N=C(Nc2nc3ccccc3o2)N1 (stereo not drawn) , can you help?
Reply | 4.96

Ask | Bench note: what pIC50 did CC1=C(C(=O)Nc2cc(C(=O)O)ccc2Cl)C(c2ccccc2Cl)N=C(Nc2nc3ccc(F)cc3o2)N1 (stereo not drawn) show?
Reply | 4.71

Ask | Name the reported pIC50 value associated with the compound CCn1cc(CNC(=O)C2=C(C)NC(Nc3nc4ccc(F)c(N)c4o3)=NC2c2ccc(C)cc2Cl)cn1 (racemic)
Reply | 6.21

Ask | Reported pIC50 for CC1=C(C(=O)Nc2cc(C(=O)O)ccn2)C(c2ccccc2Cl)N=C(Nc2nc3cccc(C(F)(F)F)c3o2)N1 (stereo not drawn) : what is it?
Reply | 4.31

Ask | Query: pIC50; subject: CC1=C(C(=O)Nc2ccccn2)C(c2ccccc2Cl)N=C(Nc2nc3ccc(F)cc3o2)N1 (stereo not drawn)
Reply | 4.96

Ask | Entry CC1=C(C(=O)Nc2ccc(F)cc2)C(c2ccccc2Cl)N=C(Nc2nc3ccccc3o2)N1 (stereo not drawn) has what pIC50?
Reply | 4.91

* * *

Catalogue of pIC50 values
Assay: Inhibition of recombinant mouse GALK1 using ATP as substrate incubated for 1 hr and measured by Kinase-Glo assay
Settings: read-out: IC50
Keep it numeric: pIC50 is minus log10 of the concentration in mol/L.

These recorded examples may help you get a feel for the data.
compound	pIC50
CC1=C(C(=O)Nc2nncs2)C(c2ccc(Cl)cc2Cl)N=C(Nc2nc3ccccc3o2)N1 (stereo not drawn)	5.21
CC1=C(C(=O)NCc2cnn(C)c2C)C(c2ccc(C)cc2Cl)N=C(Nc2nc3ccc(F)cc3o2)N1 (stereo not drawn)	5.46

Ask | Dear colleague, I am looking for the recorded pIC50 of the following compound: CC1=C(C(=O)Nc2cc(C(=O)O)ccn2)C(c2ccccc2Cl)N=C(Nc2nc3c(C)cccc3o2)N1 (stereo not drawn)
Reply | 4.76

Ask | // query pIC50 value for entry CCOc1ccc(C2N=C(Nc3nc4ccc(F)cc4o3)NC(C)=C2C(=O)Nc2cc(C(=O)O)ccn2)c(Cl)c1 (stereo not drawn)
Reply | 5.41

Ask | What value of pIC50 has been reported for the following compound? CC1=C(C(=O)Nc2cc(C(=O)O)ccn2)C(c2ccccc2Cl)N=C(Nc2nc3c(N)cccc3o2)N1 (stereo not drawn)
Reply | 4.51

Ask | Please look up its pIC50: CNC(=O)c1ccnc(NC(=O)C2=C(C)NC(Nc3nc4ccccc4o3)=NC2c2ccccc2Cl)c1 (stereo not drawn)
Reply | 4.96

Ask | Please report the recorded pIC50 for CCn1cc(CNC(=O)C2=C(C)NC(Nc3nc4ccc(F)c(N)c4o3)=N[C@H]2c2ccc(C)cc2Cl)cn1 .
Reply | 6.01

Ask | Quick one: pIC50 for CC1=C(C(=O)Nc2cc(C(=O)O)ccn2)C(c2ccc(-n3cccn3)cc2Cl)N=C(Nc2nc3ccc(F)cc3o2)N1 (stereo not drawn) ?
Reply | 5.46
